Compiled record: pIC50 values for Proto-oncogene tyrosine-protein kinase receptor Ret (Homo sapiens) across several sources.
pIC50: −log10 of the molar value.

// worked examples, pIC50 included
Record Smiles: O=C(Nc1ccc(Cc2c[nH]c3ncccc23)cc1)Nc1cccc(C(F)(F)F)c1
Data Value: ≥ 5.00
//
Record Smiles: O=C(c1ccc(Cl)cc1)c1c[nH]c2ncc(-c3ccsc3)cc12
Data Value: ≥ 5.00
//
Record Smiles: CC(C)(O)COc1cc(-c2ccc(N3C[C@@H]4[C@H](C3)[C@H]4NC(=O)c3ncccc3Cl)nc2)c2c(C#N)cnn2c1
Data Value: ≥ 8.00
//
Record Smiles: Cc1cnc(Nc2ccc(OCCN3CCCC3)cc2)nc1NCc1ccco1
Data Value: 6.31

[Q] // lookup pIC50 | system=Proto-oncogene tyrosine-protein kinase receptor Ret (Homo sapiens) | key= `CNc1ncc2c(n1)N1CCN=C1C(c1cc(NC(=O)c3cc(C(F)(F)F)ccn3)ccc1F)=C2`
[A] > 7.00

[Q] And the next one, `COCc1cccc2[nH]c(-c3n[nH]c4ncc(-c5cncc(CO)c5)cc34)nc12` ?
[A] ~5.00

[Q] And the next one, `COc1ccc(C(=O)c2c[nH]c3ncccc23)c(Cl)c1` ?
[A] ≥ 5.00

[Q] And the next one, `CCOc1cc(-c2ncc(NC(=O)Nc3cccc(C(F)(F)F)c3)c(C)n2)c[nH]c1=O` ?
[A] > 7.00

[Q] And the next one, `Cn1cc(-c2cc(-c3ccc(N4C[C@@H]5C[C@@](C)(NC(=O)c6ncccc6C#N)C[C@@H]5C4)nc3)c3c(C#N)cnn3c2)cn1` ?
[A] ≥ 8.00

* * *

Compiled record: IC50 values for Proto-oncogene tyrosine-protein kinase receptor Ret (Homo sapiens, UniProt P07949) across several sources.

// worked examples, IC50 included
Record Smiles: O=C(Nc1ccccc1)Nc1ccc(Cc2c[nH]c3ncccc23)cc1
Readout Name: IC50
Data Value: ≤ 10000 nM

Record Smiles: Cn1cc(C(F)(F)F)c(-c2ccc(S(=O)(=O)NCc3c[nH]c4ncccc34)s2)n1
Readout Name: IC50
Data Value: ≤ 10000 nM

Record Smiles: COc1cccc(Cc2c[nH]c3ncc(-c4ccc(C(N)=O)cc4)cc23)c1
Readout Name: IC50
Data Value: ≤ 10000 nM

Record Smiles: CCOc1cc(-c2ccc(CC(=O)Nc3ccc(Cl)c(Cl)c3)c(F)c2)c[nH]c1=O
Readout Name: IC50
Data Value: 100 to 500 nM

Record Smiles: COCc1cccc2[nH]c(-c3n[nH]c4ncc(-c5cnccc5C)cc34)nc12
Readout Name: IC50
Data Value: > 10000 nM

[Q] Data request, read-out IC50, for `Cn1cc(-c2cc(-c3ccc(N4C[C@H]5CN(C(=O)c6c(F)cccc6Cl)C[C@H]5C4)nc3)c3c(C#N)cnn3c2)cn1`
[A] ≤ 10 nM

[Q] And the next one, `Cc1cc(C(=O)c2c[nH]c3ncc(-c4cccc(C(N)=O)c4)cc23)n(C)n1` ?
[A] ≤ 10000 nM

[Q] And the next one, `Cc1cc(C(=O)c2c[nH]c3ncc(-c4cccc(NS(C)(=O)=O)c4)cc23)n(C)n1` ?
[A] ≤ 10000 nM

[Q] And the next one, `COC1(C(=O)N[C@@H](C)c2ccc(-n3cc(F)cn3)nc2)CN(c2nc(Nc3cc(C)[nH]n3)cc(C)c2C#N)C1` ?
[A] < 10 nM

* * *

Compiled record: IC50 values for Proto-oncogene tyrosine-protein kinase receptor Ret (Homo sapiens, UniProt P07949) across several sources.

// worked examples, IC50 included
Compound: CCOc1cc(-c2cnc(N3C4CC5CC3CC(NC=O)(C5)C4)cn2)c2c(C#N)cnn2c1
Measurement Target: Proto-oncogene tyrosine-protein kinase receptor Ret (Homo sapiens, UniProt P07949)
IC50: ≤ 10 nM
--
Compound: COc1cccc(Cc2c[nH]c3nccc(-c4ccsc4)c23)n1
Measurement Target: Proto-oncogene tyrosine-protein kinase receptor Ret (Homo sapiens, UniProt P07949)
IC50: ≤ 10000 nM
--
Compound: COc1cccc(Cc2c[nH]c3ncc(-c4cccnc4)cc23)c1F
Measurement Target: Proto-oncogene tyrosine-protein kinase receptor Ret (Homo sapiens, UniProt P07949)
IC50: ≤ 10000 nM

[Q] Data request, read-out IC50, for `CN(C)CCC1CCN(CCS(=O)(=O)c2ccc(-c3cnc(N)c(C(=O)Nc4ccccc4)n3)cc2)CC1`
[A] 77.4 nM

[Q] And the next one, `COc1ccc(CN2C[C@@H]3CN(c4ccc(-c5cc(OCC(C)(C)O)cn6ncc(C#N)c56)cn4)C[C@@H]3C2)cn1` ?
[A] ≤ 10 nM

[Q] And the next one, `COc1ccc(NC(=O)N[C@H]2[C@@H]3CN(c4ccc(-c5cc(OCC(C)(C)O)cn6ncc(C#N)c56)cn4)C[C@@H]32)cn1` ?
[A] 10 to 50 nM

[Q] And the next one, `O=C(Nc1ccc(-c2c[nH]c(=O)c3occc23)cc1F)Nc1cc(C(F)(F)F)ccc1F` ?
[A] < 100 nM

[Q] And the next one, `CS(=O)(=O)Nc1cccc(-c2cnc3[nH]cc(C(=O)c4c(F)ccc(NS(C)(=O)=O)c4F)c3c2)c1` ?
[A] ≤ 10000 nM

[Q] And the next one, `COc1ccc(NC(=O)C23CC4CC(C2)N(c2cnc(-c5cc(OCC(C)(C)O)cn6ncc(C#N)c56)cn2)C(C4)C3)cn1` ?
[A] ≤ 10 nM

[Q] And the next one, `CNc1nc(C)c2c(n1)N1CCN=C1C(c1cc(NC(=O)c3cc(C(F)(F)F)ccn3)ccc1C)=C2` ?
[A] > 10000 nM

[Q] And the next one, COC(=O)Nc1ccc(F)c(C(O)c2c[nH]c3ncc(-c4cccnc4)cc23)c1F (stereo not drawn) ?
[A] ≤ 10000 nM

[Q] And the next one, `O=C(c1ccc(O)cc1)c1c[nH]c2ncc(-c3cccs3)cc12` ?
[A] ≤ 10000 nM

[Q] And the next one, `COCc1cccc2[nH]c(-c3n[nH]c4ncc(-c5cncc(CNC6CCN(C)CC6)c5)cc34)nc12` ?
[A] > 100000 nM

[Q] And the next one, `Cc1cc(Nc2cc(C)[nH]n2)nc(-c2ccc(C(=O)NCc3cccc(F)c3)nc2)n1` ?
[A] > 100 nM

[Q] And the next one, `CC(=O)c1cccc(-c2ccnc3[nH]ccc23)c1` ?
[A] ≤ 10000 nM

[Q] And the next one, `CCOc1ccc(NC(=O)Nc2ccc(-c3ccc(=O)n(CC)c3)cc2F)cc1C(F)(F)F` ?
[A] 100 to 500 nM

[Q] And the next one, `Cn1cc(-c2cc(-c3cnc(N4C5CC6CC4CC(N)(C6)C5)cn3)c3c(C#N)cnn3c2)cn1` ?
[A] ≤ 10 nM

[Q] And the next one, `CO[C@]1(c2cc(C)cc(Nc3cc(C)[nH]n3)n2)C[C@H](C(=O)N[C@@H](C)c2ccc(-n3cc(F)cn3)nc2)C1` ?
[A] < 100 nM

[Q] And the next one, Cc1cc(Nc2cc(C)[nH]n2)nc([C@H]2CC[C@H](C(=O)N[C@@H](C)c3ccc(-n4cc(F)cn4)nc3)C2)n1 (single isomer, unassigned) ?
[A] < 10 nM

[Q] And the next one, `CNCc1cncc(-c2cnc3[nH]nc(-c4nc5ccc(C#N)cc5[nH]4)c3c2)c1` ?
[A] > 10 nM

[Q] And the next one, `Oc1ccc(F)c(Cc2c[nH]c3ncc(-c4cccnc4)cc23)c1F` ?
[A] ≤ 10000 nM

* * *

pIC50: −log10 of the molar value.
Compiled record: pIC50 values for Proto-oncogene tyrosine-protein kinase receptor Ret (Homo sapiens) across several sources.

// worked examples, pIC50 included
Compound: CCOc1cc(-c2ncc(NC(=O)Nc3ccc(CN(C)C)c(C(F)(F)F)c3)cn2)c[nH]c1=O
pIC50: > 7.00
--
Compound: Cc1ccc(S(=O)(=O)NCc2c[nH]c3ncccc23)cc1
pIC50: ≥ 5.00
--
Compound: Nc1cccc(-c2ccnc3[nH]cc(C(=O)c4ccccc4F)c23)c1
pIC50: ≥ 5.00

[Q] Data request, read-out pIC50, for `CCOc1cc(-c2ncc(NC(=O)Nc3ccc(C#N)c(C(F)(F)F)c3)c(C)n2)c[nH]c1=O`
[A] > 7.00

[Q] And the next one, `CCOc1cc(=O)[nH]cc1-c1ncc(NC(=O)Nc2cc(-c3nnc(C)o3)cc(C(F)(F)F)c2)c(C)n1` ?
[A] > 7.00

[Q] And the next one, `CS(=O)(=O)Nc1cccc(-c2ccnc3[nH]cc(C(=O)c4ccc(Cl)cc4)c23)c1` ?
[A] ≥ 5.00

[Q] And the next one, `COc1ccc(NC(=O)[C@]2(C)C[C@H]3CN(c4ccc(-c5cc(-c6ccn(C)n6)cn6ncc(C#N)c56)cn4)C[C@H]3C2)cn1` ?
[A] ≥ 8.00

[Q] And the next one, `Cc1cc(Nc2cc(C)[nH]n2)nc([C@]2(O)C[C@](C)(C(=O)N[C@@H](C)c3ccc(-n4cc(F)cn4)nc3)C2)c1` ?
[A] > 7.00
